Origin of measurements: patent EP4703384A1

molecular target: CHO-K1-hGPRC5D^hi cells, CHO-K1-cynoGPRC5D cells, and/or CHO-K1-murineGPRC5D cells; assay: cell ELISA (OD450), subclone supernatant on fixed transfected CHO-K1 cells against CHO-K1
quantity: fold difference in absorbance as compared to the control cell CHO-K1

fold difference in absorbance as compared to the control cell CHO-K1 measured on mu-105 (antibody, V domains shown) VH: EVQLQQSGPELVKPGASVKMSCKASGYTFTDYYMNWVKQSHGKSLEWIGYIYPNNGGTGYNQRFKGKATLTADKSSSTAYMELRSLTSEDSAVYYCARWGGTRLGYYAMDYWGQGTSVTVSS VL: DIVMTQSQKFMSTSVGDRVSVTCKASQNVGTNVVWYQQKPGQSPKLLIYWASTRHTGVPDRFTGSGSGTDFTLTISNVQSEDLADYFCQQYSRYPYTFGGGTKLEIK = > 2 fold
